Catalogue of MIC50 values
Test system: clinically isolated Staphylococcus epidermidis
Experiment: In vitro antibacterial activity against clinical isolates, Experiment 2
Format: cell-based
Conditions: Staphylococcus epidermidis

CN1Cc2csc3c(C(=O)O)c(=O)c4cc(F)c(N5CCO[C@H](CO)C5)c1c4n23 [Compound (M)]
0.025 µg/mL

(Q) Which MIC50 reading was recorded for the molecule CN1Cc2csc3c(C(=O)O)c(=O)c4cc(F)c(N5CCOC(CO)C5)c1c4n23 (stereo not shown) [Compound (B)] ?
(A) 0.025 µg/mL

(Q) Field request: MIC50 | item: CCOCC1CN(c2c(F)cc3c(=O)c(C(=O)O)c4scc5n4c3c2N(C)C5)CCO1 (stereo not shown) [Compound (Q)]
(A) 0.025 µg/mL

(Q) Entry under review: CN1Cc2csc3c(C(=O)O)c(=O)c4cc(F)c(N5CCO[C@@H](CO)C5)c1c4n23 [Compound (N)] . Reported MIC50?
(A) 0.025 µg/mL
